# target of assay: PDK-1 (Homo sapiens)
# Sequence (O15530 whole entry): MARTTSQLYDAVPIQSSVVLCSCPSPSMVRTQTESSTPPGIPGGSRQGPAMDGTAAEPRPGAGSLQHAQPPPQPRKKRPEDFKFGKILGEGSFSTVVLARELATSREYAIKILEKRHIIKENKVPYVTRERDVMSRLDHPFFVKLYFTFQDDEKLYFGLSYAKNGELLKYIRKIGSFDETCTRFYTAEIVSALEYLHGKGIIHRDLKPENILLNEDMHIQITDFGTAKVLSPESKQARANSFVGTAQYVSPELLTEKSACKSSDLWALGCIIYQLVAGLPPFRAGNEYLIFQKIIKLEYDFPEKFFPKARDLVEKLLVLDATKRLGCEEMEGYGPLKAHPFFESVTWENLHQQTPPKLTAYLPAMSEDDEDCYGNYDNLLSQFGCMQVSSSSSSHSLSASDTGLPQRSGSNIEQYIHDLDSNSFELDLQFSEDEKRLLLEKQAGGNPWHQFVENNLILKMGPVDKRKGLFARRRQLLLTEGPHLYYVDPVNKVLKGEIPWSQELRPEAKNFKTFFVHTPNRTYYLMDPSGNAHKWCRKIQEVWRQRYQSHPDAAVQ
# experimental protocol: PDK-1 kinase inhibition ELISA assay (phosphorylation of His6-tagged SGK1 S422D by PDK-1)
# Format: biochemical
# experimental conditions: PDK-1 ELISA, Table 11; read-out: Average IC50
measurement type: pIC50
Scale explanation: pIC50 corresponds to minus log10 of a concentration expressed in moles per litre.

Some compounds with known pIC50 results, for comparison:
>>> quantitative_result("COc1cc2c(cc1OCCCl)ncc1c(N)nc(-n3ccnc3)cc12")
7.19
>>> quantitative_result("COc1cc2ncc3c(N)nc(-c4cc(F)cc(C#N)c4)cc3c2cc1OC")
6.00

Task: Please give the measured pIC50 for this compound: COc1cc2ncc3c(N)nc(-c4cncc(OC[C@@H](N)CNCC5CCCCC5)c4)cc3c2cc1OC
Output: 7.28

Task: Fill blank: measured pIC50 of the compound COc1cc2c(cc1OCC1CCN(C)CC1)ncc1c(N)nc(-c3ccncc3)cc12 is ____.
Output: 5.16

Task: Using the record for COCCN(C[C@H](N)COc1cncc(-c2cc3c(cnc4cc(OC)c(OC)cc43)c(N)n2)c1)c1ccccc1 , report its pIC50.
Output: 8.22

Task: // query pIC50 value for entry COc1cc2ncc3c(N)nc(-c4cncc(Nc5ccc(CO)cc5)c4)cc3c2cc1OC
Output: 6.85

Task: Returns the measured pIC50 for the input compound. Input: COc1cc2ncc3c(N)nc(-c4cncc(OC[C@@H](N)Cn5ccnc5)c4)cc3c2cc1OC
Output: 7.70

Task: I'd like to know its pIC50. The compound in question is COc1cc2ncc3c(N)nc(-c4cncc(OC[C@@H](N)COc5cc(C)ccn5)c4)cc3c2cc1OC
Output: 8.05

Task: What value of pIC50 has been recorded for this entry: COc1cc2ncc3c(N)nc(-c4cccc(C(=O)NCc5cccnc5)c4)cc3c2cc1OC
Output: 6.00

Task: Can you share its pIC50? I mean this compound: COc1ccc(-c2cc3c(cnc4cc(OC)c(OC)cc43)c(N)n2)cn1
Output: 7.30

Task: # pIC50 lookup, item COc1cc2c(cc1OCC1CCN(C)CC1)ncc1c(N)nc(-c3cnccn3)cc12
Output: 6.12

Task: Please look up its pIC50: COCCOc1cc2ncc3c(N)nc(-c4cncc(OC[C@@H](N)Cc5ccccc5)c4)cc3c2cc1OC
Output: 7.92

Task: Item under review: COc1cc2ncc3c(N)nc(-c4cncc(OC[C@@H](Cc5ccccc5)NC=O)c4)cc3c2cc1OC . Reported pIC50?
Output: 7.42
